tested on: BaF3; experiment: Antiproliferative activity against mouse BaF3 cells expressing rearranged during transfection kinase V804M-KIF5B incubated for 74 to 76 hrs by cell counting kit 8 method
measurement.kind: IC50 (µM)
Numeric only. Scale: µM

Example molecules with recorded IC50:
molecule	IC50 / µM
CO[C@]1(C(=O)N[C@@H](C)c2ccc(-n3cc(F)cn3)nc2)CC[C@H](c2nc(C)cc(Nc3cc(C)[nH]n3)n2)CC1 [PRALSETINIB]	0.0092
COc1cc2nccc(Oc3ccc(Nc4nn(C)cc4C(=O)NC45CC6CC(CC(C6)C4)C5)c(F)c3)c2cc1C(N)=O	0.0531

Incoming: Need IC50, item COc1ccc(CN2C3CC2CN(c2ccc(-c4cc(OCC(C)(C)O)cn5ncc(C#N)c45)cn2)C3)cn1 [SELPERCATINIB]
Outgoing: 0.072

###

// reported pIC50 for each item listed
system: BaF3; test: Antiproliferative activity against mouse BaF3 cells expressing rearranged during transfection kinase G810C-CCDC6 incubated for 74 to 76 hrs by cell counting kit 8 method
Field pIC50 (float): negative decimal logarithm of the concentration in molar.

Example compounds with recorded pIC50:
compound	target	pIC50
COc1cc2nccc(Oc3ccc(Nc4nn(C)cc4C(=O)NC45CC6CC(CC(C6)C4)C5)c(F)c3)c2cc1C(N)=O	BaF3	7.81
COc1cc2nccc(Oc3ccc(Nc4nn(C)cc4C(=O)NCC4CCCCC4)cc3)c2cc1C(N)=O	BaF3	5.90

Incoming: Need pIC50, item COc1cc2nccc(Oc3ccc(Nc4nn(C)cc4C(=O)NCC4CCCO4)cc3)c2cc1C(N)=O (stereo unspecified)
Outgoing: 5.02

Incoming: Need pIC50, item COc1cc2nccc(Oc3ccc(Nc4nn(C)cc4C(=O)NCc4ccccc4)cc3)c2cc1C(N)=O
Outgoing: 5.07

Incoming: Need pIC50, item COc1cc2nccc(Oc3ccc(Nc4nn(C)cc4C(=O)N4CCCC5CCCCC54)cc3)c2cc1C(N)=O (stereo unspecified)
Outgoing: 5.42

Incoming: Need pIC50, item COc1cc2nccc(Oc3ccc(Nc4nn(C)cc4C(=O)NC45CC6CC(CC(C6)C4)C5)c(C)c3)c2cc1C(N)=O
Outgoing: 7.18

Incoming: Need pIC50, item COc1cc2nccc(Oc3ccc(Nc4nn(C)cc4C(=O)NC4CCCCC4)cc3)c2cc1C(N)=O
Outgoing: 6.35

Incoming: Need pIC50, item COc1cc2nccc(Oc3ccc(Nc4nn(C)cc4C(=O)NC45CC6CC(CC(C6)C4)C5)c(Cl)c3)c2cc1C(N)=O
Outgoing: 7.53

Incoming: Need pIC50, item COc1cc2nccc(Oc3ccc(Nc4nn(C)cc4C(=O)NC45CCC(CC4)CC5)cc3)c2cc1C(N)=O
Outgoing: 6.48

###

target: Proto-oncogene tyrosine-protein kinase receptor Ret (Homo sapiens)
Sequence (P07949 whole entry): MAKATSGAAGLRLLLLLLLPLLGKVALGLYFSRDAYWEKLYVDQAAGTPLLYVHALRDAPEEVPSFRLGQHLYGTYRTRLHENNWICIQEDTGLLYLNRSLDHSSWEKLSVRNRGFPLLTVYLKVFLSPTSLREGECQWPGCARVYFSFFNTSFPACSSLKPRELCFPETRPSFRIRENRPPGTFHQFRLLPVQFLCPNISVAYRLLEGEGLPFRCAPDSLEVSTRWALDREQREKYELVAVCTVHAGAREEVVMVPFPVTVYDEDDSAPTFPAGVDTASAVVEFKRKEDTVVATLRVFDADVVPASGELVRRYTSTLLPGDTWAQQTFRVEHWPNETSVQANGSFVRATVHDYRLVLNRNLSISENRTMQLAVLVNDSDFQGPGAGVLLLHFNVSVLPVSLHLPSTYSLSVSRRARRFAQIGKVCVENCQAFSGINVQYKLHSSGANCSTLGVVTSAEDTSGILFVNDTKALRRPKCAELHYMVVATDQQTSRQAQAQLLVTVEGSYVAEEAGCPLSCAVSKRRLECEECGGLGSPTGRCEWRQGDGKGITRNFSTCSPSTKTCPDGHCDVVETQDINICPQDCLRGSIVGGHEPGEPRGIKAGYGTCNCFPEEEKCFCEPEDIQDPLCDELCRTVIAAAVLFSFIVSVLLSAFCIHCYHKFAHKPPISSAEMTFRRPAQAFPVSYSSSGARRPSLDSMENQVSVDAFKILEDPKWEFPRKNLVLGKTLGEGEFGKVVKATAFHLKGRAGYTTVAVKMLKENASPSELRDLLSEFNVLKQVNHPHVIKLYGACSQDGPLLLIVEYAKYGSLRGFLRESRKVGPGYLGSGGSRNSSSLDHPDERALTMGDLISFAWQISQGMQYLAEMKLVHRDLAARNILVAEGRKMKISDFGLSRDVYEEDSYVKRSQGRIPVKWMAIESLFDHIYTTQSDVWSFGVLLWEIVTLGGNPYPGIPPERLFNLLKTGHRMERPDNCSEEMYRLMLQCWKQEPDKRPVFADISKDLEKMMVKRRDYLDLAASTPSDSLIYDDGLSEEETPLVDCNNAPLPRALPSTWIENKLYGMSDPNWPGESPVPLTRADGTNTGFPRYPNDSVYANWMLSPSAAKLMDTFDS
measurement.kind: IC50

molecule	measurement.kind	observed.measurement
COc1cc2nccc(Oc3ccc(Nc4nn(C)cc4C(=O)Nc4ccc(F)cc4)cc3)c2cc1C(N)=O	IC50	> 10 µM

Incoming: Could you share what IC50 was measured for COc1cc2nccc(Oc3ccc(Nc4nn(C)cc4C(=O)N4CCCCC4)cc3)c2cc1C(N)=O , tested on Proto-oncogene tyrosine-protein kinase receptor Ret (Homo sapiens)?
Outgoing: > 10 µM

Incoming: Could you share what IC50 was measured for COc1cc2nccc(Oc3ccc(Nc4nn(C)cc4C(=O)Nc4cccc(F)c4)cc3)c2cc1C(N)=O , tested on Proto-oncogene tyrosine-protein kinase receptor Ret (Homo sapiens)?
Outgoing: > 10 µM

Incoming: Could you share what IC50 was measured for COc1cc2nccc(Oc3ccc(Nc4nn(C)cc4C(=O)N4CCCC5CCCCC54)cc3)c2cc1C(N)=O (stereo not given) , tested on Proto-oncogene tyrosine-protein kinase receptor Ret (Homo sapiens)?
Outgoing: > 10 µM

Incoming: Could you share what IC50 was measured for COc1cc2nccc(Oc3ccc(Nc4nn(C)cc4C(=O)Nc4ccccc4F)cc3)c2cc1C(N)=O , tested on Proto-oncogene tyrosine-protein kinase receptor Ret (Homo sapiens)?
Outgoing: > 10 µM
